Parameter: MIC. Scope: all listed entries.
# System: Staphylococcus aureus ATCC 29213

>>> assay_result("[2H]C([2H])([2H])N1C(=O)CNc2ccc(OCCNCC3CN(c4cnc5c(n4)NC(=O)CS5)C(=O)O3)nc21 (stereo in doubt)")
"< 0.015 mg/L"
>>> assay_result("O=C(O)c1cn(C2CC2)c2cc(N3CCNCC3)c(F)cc2c1=O [Ciprofloxacin, reference compound]")
"0.4 mg/L"

Kindly review the next molecule as well.
Value wanted: MIC (Staphylococcus aureus ATCC 29213) of entry "CN1C(=O)CNc2ccc(OCCNC[C@H]3CN(c4cnc5c(n4)NC(=O)CS5)C(=O)O3)nc21" < 0.015 mg/L

====

# Tested on: CHO-K1 cells
# test.protocol: In-vitro micronucleus assay
# Assay type: cell-based
# stated.conditions: Chinese hamster
value.type: % (in-vitro micronucleus assay) (%)
// units = %; emit number, no label

Previously resolved entries follow.
>>> assay_result("CN1C(=O)CNc2ccc(OCCNC[C@H]3CN(c4cnc5c(n4)NC(=O)CS5)C(=O)O3)nc21")
0.4
>>> assay_result("Cn1c(=O)cnc2ccc(OCCNC[C@H]3CN(c4cnc5c(n4)NC(=O)CS5)C(=O)O3)nc21 [Compound 1, reference compound]")
1.58
>>> assay_result("Cn1c(=O)cnc2ccc(OCCNC[C@@H]3CN(c4cnc5c(n4)NC(=O)CS5)C(=O)O3)nc21")
0.81
>>> assay_result("CN1C(=O)CNc2cc(F)c(OCCNC[C@H]3CN(c4cnc5c(n4)NC(=O)CS5)C(=O)O3)nc21")
0.5
>>> assay_result("Cn1c(=O)ccc2ncc(OCCNC[C@@H]3CN(c4cnc5c(n4)NC(=O)CS5)C(=O)O3)nc21")
0.76
>>> assay_result("CN1C(=O)CNc2cc(F)c(OCCNC[C@@H]3CN(c4cnc5c(n4)NC(=O)CS5)C(=O)O3)nc21")
0.41
>>> assay_result("Cn1c(=O)ccc2ncc(OCCNC[C@H]3CN(c4cnc5c(n4)NC(=O)CS5)C(=O)O3)nc21 [Compound 2, reference compound]")
1.67
>>> assay_result("CN1C(=O)CNc2ccc(OCCNC[C@@H]3CN(c4cnc5c(n4)NC(=O)CS5)C(=O)O3)nc21")
0.5

Please look at the following molecule next.
Name the reported % (in-vitro micronucleus assay) value associated with the molecule [2H]C([2H])([2H])N1C(=O)CNc2ccc(OCCNCC3CN(c4cnc5c(n4)NC(=O)CS5)C(=O)O3)nc21 (stereo in doubt) 0.51

====

# Tested on: Klebsiella pneumoniae
# test.protocol: MIC90 determination, clinical strains (CLSI)
# Type: cell-based
# stated.conditions: Klebsiella pneumoniae, N=86, read-out: MIC 90 Klebsiella pneumoniae
value.type: MIC90 (µg/mL)

// known answers, use as guide
>>> assay_result("Cn1c(=O)cnc2ccc(OCCNC[C@@H]3CN(c4cnc5c(n4)NC(=O)CS5)C(=O)O3)nc21")
4
>>> assay_result("Cn1c(=O)ccc2ncc(OCCNC[C@H]3CN(c4cnc5c(n4)NC(=O)CS5)C(=O)O3)nc21 [Compound 2, reference compound]")
4

1: Cn1c(=O)cnc2ccc(OCCNC[C@H]3CN(c4cnc5c(n4)NC(=O)CS5)C(=O)O3)nc21 [Compound 1, reference compound]
2: Cn1c(=O)ccc2ncc(OCCNC[C@@H]3CN(c4cnc5c(n4)NC(=O)CS5)C(=O)O3)nc21
Which one would you say has the larger MIC90 value: 1 , or 2 ? // respond with label for picked entry 2

====

Quick reference: In vitro micronucleus forming concentration of the listed items.
# Test system: CHO-K1 cells
# test.protocol: In-vitro micronucleus assay
# Assay type: cell-based
# stated.conditions: Chinese hamster

Below are worked cases with known answers.
>>> assay_result("CN1C(=O)CNc2ccc(OCCNC[C@H]3CN(c4cnc5c(n4)NC(=O)CS5)C(=O)O3)nc21 [Compound 6]")
">1000 µM"
>>> assay_result("CN1C(=O)CNc2cc(F)c(OCCNC[C@H]3CN(c4cnc5c(n4)NC(=O)CS5)C(=O)O3)nc21 [Compound 8]")
">1000 µM"

What measured In vitro micronucleus forming concentration is associated with [2H]C([2H])([2H])N1C(=O)CNc2ccc(OCCNCC3CN(c4cnc5c(n4)NC(=O)CS5)C(=O)O3)nc21 (stereo in doubt) [Compound 9] on CHO-K1 cells? >1000 µM

Identify the measured In vitro micronucleus forming concentration of Cn1c(=O)cnc2ccc(OCCNC[C@H]3CN(c4cnc5c(n4)NC(=O)CS5)C(=O)O3)nc21 [Compound 1, reference compound] for CHO-K1 cells. 32 µM

Fill in the recorded In vitro micronucleus forming concentration for this molecule, with CHO-K1 cells as test system: Cn1c(=O)cnc2ccc(OCCNC[C@@H]3CN(c4cnc5c(n4)NC(=O)CS5)C(=O)O3)nc21 [Compound 3] >500 µM

# returns recorded In vitro micronucleus forming concentration (system: CHO-K1 cells) for Cn1c(=O)ccc2ncc(OCCNC[C@H]3CN(c4cnc5c(n4)NC(=O)CS5)C(=O)O3)nc21 [Compound 2, reference compound] 8 µM

GET /values?readout=In vitro micronucleus forming concentration&system=CHO-K1 cells&item= CN1C(=O)CNc2cc(F)c(OCCNC[C@@H]3CN(c4cnc5c(n4)NC(=O)CS5)C(=O)O3)nc21 [Compound 7] >1000 µM

CHO-K1 cells / In vitro micronucleus forming concentration / CN1C(=O)CNc2ccc(OCCNC[C@@H]3CN(c4cnc5c(n4)NC(=O)CS5)C(=O)O3)nc21 [Compound 5] : value? >1000 µM

====

# System: Escherichia coli ATCC 25922
value.type: MIC (µg/mL)

These solved cases illustrate the format of a correct answer.
>>> assay_result("CN1C(=O)CNc2ccc(OCCNC[C@H]3CN(c4cnc5c(n4)NC(=O)CS5)C(=O)O3)nc21 [Compound 6]")
0.06
>>> assay_result("CN1C(=O)CNc2cc(F)c(OCCNC[C@H]3CN(c4cnc5c(n4)NC(=O)CS5)C(=O)O3)nc21 [Compound 8]")
0.03
>>> assay_result("Cn1c(=O)cnc2ccc(OCCNC[C@H]3CN(c4cnc5c(n4)NC(=O)CS5)C(=O)O3)nc21 [Compound 1, reference compound]")
0.03
>>> assay_result("Cn1c(=O)ccc2ncc(OCCNC[C@H]3CN(c4cnc5c(n4)NC(=O)CS5)C(=O)O3)nc21 [Compound 2, reference compound]")
0.03
>>> assay_result("Cn1c(=O)ccc2ncc(OCCNC[C@@H]3CN(c4cnc5c(n4)NC(=O)CS5)C(=O)O3)nc21 [Compound 4]")
0.06

I: Cn1c(=O)cnc2ccc(OCCNC[C@@H]3CN(c4cnc5c(n4)NC(=O)CS5)C(=O)O3)nc21 [Compound 3]
II: O=C(O)c1cn(C2CC2)c2cc(N3CCNCC3)c(F)cc2c1=O [Ciprofloxacin, reference compound]
III: [2H]C([2H])([2H])N1C(=O)CNc2ccc(OCCNCC3CN(c4cnc5c(n4)NC(=O)CS5)C(=O)O3)nc21 (stereo in doubt) [Compound 9]
rank_up(items): orders items by reported MIC in ascending numerical order. Order the labels as requested and list them. II, I, III
(II: 0.012 µg/mL, I: 0.03 µg/mL, III: 0.06 µg/mL)

====

Below is a list of entries, each paired with its recorded IC50 value.
# target.or.test.system: hERG potassium channel (Homo sapiens (Human), UniProt Q12809)
# Sequence (Q12809 whole entry): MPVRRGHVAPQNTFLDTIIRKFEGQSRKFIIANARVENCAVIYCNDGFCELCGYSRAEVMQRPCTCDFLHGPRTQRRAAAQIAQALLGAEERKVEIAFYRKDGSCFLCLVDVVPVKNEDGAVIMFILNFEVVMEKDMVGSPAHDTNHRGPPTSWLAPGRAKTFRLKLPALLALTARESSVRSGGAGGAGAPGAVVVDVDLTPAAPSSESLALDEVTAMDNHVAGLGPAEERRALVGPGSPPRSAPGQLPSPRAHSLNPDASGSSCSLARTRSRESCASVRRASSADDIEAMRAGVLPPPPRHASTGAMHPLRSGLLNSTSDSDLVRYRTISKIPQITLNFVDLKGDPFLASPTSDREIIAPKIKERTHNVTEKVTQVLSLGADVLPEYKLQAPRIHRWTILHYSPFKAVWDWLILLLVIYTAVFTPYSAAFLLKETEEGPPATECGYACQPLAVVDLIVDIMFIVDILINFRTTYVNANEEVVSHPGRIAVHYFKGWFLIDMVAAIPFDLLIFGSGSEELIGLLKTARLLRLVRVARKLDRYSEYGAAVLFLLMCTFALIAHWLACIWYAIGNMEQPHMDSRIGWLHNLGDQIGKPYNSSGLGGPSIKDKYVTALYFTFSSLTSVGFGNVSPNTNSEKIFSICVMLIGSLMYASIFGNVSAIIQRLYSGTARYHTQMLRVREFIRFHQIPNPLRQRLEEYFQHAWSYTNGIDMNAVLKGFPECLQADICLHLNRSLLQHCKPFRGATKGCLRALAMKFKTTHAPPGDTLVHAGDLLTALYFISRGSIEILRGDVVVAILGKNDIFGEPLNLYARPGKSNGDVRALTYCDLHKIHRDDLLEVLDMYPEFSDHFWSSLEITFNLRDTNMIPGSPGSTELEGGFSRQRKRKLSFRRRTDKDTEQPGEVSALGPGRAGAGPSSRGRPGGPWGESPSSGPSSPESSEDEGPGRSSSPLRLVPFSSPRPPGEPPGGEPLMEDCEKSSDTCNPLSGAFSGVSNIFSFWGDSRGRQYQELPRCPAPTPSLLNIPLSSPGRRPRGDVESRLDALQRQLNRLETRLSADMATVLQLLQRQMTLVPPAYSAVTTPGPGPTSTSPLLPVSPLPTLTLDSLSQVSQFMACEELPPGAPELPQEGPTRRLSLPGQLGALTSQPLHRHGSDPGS
# test.protocol: hERG inhibition assay (Qpatch HTX automated electrophysiology)
# stated.conditions: CHO cell line expressing hERG, whole-cell patch clamp

>>> assay_result("Cn1c(=O)ccc2ncc(OCCNC[C@@H]3CN(c4cnc5c(n4)NC(=O)CS5)C(=O)O3)nc21")
"> 300 µM"
>>> assay_result("CN1C(=O)CNc2cc(F)c(OCCNC[C@@H]3CN(c4cnc5c(n4)NC(=O)CS5)C(=O)O3)nc21")
"> 300 µM"

Return IC50 measured with hERG potassium channel (Homo sapiens (Human), UniProt Q12809) given this molecule: "CN1C(=O)CNc2ccc(OCCNC[C@@H]3CN(c4cnc5c(n4)NC(=O)CS5)C(=O)O3)nc21" > 300 µM

For hERG potassium channel (Homo sapiens (Human), UniProt Q12809), provide IC50 of [2H]C([2H])([2H])N1C(=O)CNc2ccc(OCCNCC3CN(c4cnc5c(n4)NC(=O)CS5)C(=O)O3)nc21 (stereo in doubt) please. 141 µM

Entry Cn1c(=O)cnc2ccc(OCCNC[C@H]3CN(c4cnc5c(n4)NC(=O)CS5)C(=O)O3)nc21 [Compound 1, reference compound] , system hERG potassium channel (Homo sapiens (Human), UniProt Q12809): what IC50 was measured? 58 µM

====

Record set of MIC for target or system Acinetobacter baumannii ATCC 19606.
value.type: MIC (µg/mL)

>>> assay_result("Cn1c(=O)cnc2ccc(OCCNC[C@@H]3CN(c4cnc5c(n4)NC(=O)CS5)C(=O)O3)nc21")
0.03
>>> assay_result("[2H]C([2H])([2H])N1C(=O)CNc2ccc(OCCNCC3CN(c4cnc5c(n4)NC(=O)CS5)C(=O)O3)nc21 (stereo in doubt)")
0.03
>>> assay_result("CN1C(=O)CNc2cc(F)c(OCCNC[C@@H]3CN(c4cnc5c(n4)NC(=O)CS5)C(=O)O3)nc21")
0.03
>>> assay_result("Cn1c(=O)ccc2ncc(OCCNC[C@@H]3CN(c4cnc5c(n4)NC(=O)CS5)C(=O)O3)nc21")
0.03

A: CN1C(=O)CNc2cc(F)c(OCCNC[C@H]3CN(c4cnc5c(n4)NC(=O)CS5)C(=O)O3)nc21
B: O=C(O)c1cn(C2CC2)c2cc(N3CCNCC3)c(F)cc2c1=O [Ciprofloxacin, reference compound]
C: Cn1c(=O)ccc2ncc(OCCNC[C@H]3CN(c4cnc5c(n4)NC(=O)CS5)C(=O)O3)nc21 [Compound 2, reference compound]
Put the compounds in ascending order of MIC. A complete answer lists every label in the requested sequence. C, A, B

a: CN1C(=O)CNc2ccc(OCCNC[C@@H]3CN(c4cnc5c(n4)NC(=O)CS5)C(=O)O3)nc21
b: Cn1c(=O)cnc2ccc(OCCNC[C@H]3CN(c4cnc5c(n4)NC(=O)CS5)C(=O)O3)nc21 [Compound 1, reference compound]
Hi, I'm comparing two records. Which one has the lower MIC, a or b ? Please reply using the label of the selected record. b
(b: 0.03 µg/mL, a: 0.06 µg/mL)
